Assay: Quantitative High-Throughput drug screen in 47 multiple myeloma cell lines against the NCATS MIPE library collection: EJM_DSMZ cell viability assay (AID 1918926; note: potency is the fitted concentration of half-maximal effect; nearly all actives have a fitted effect of over 30% in size)
Conditions: EJM myeloma cell viability, CellTiter-Glo ATP, 48 h; series mostly up to 45.8 µM
Results filed as inconclusive are left out. The source made the active and inactive calls. Calls come from the whole dose curve; as a rule, active = well fitted cell-killing curve with a large enough effect; inconclusive = small, poorly fitted or top-dose-only effect, or effect the other way; inactive = no such curve, though single readings can be large or run the other way.
Parameter measured: Potency

1) CO[C@H]1C=CC=C(C)C(=O)NC2=CC(=O)C(NCCN(C)C)=C(C[C@@H](C)C[C@H](OC)[C@@H](O)[C@@H](C)C=C(C)[C@@H]1OC(N)=O)C2=O :: 1.48 µM (active)
2) OC[C@H]1O[C@@H](Oc2cc(O)cc(C=Cc3ccc(O)cc3)c2)[C@H](O)[C@@H](O)[C@H]1O :: 4.69 µM (active)
3) Clc1ccc(C(c2ccc(Cl)cc2)n2cc[n+](CC(OCc3ccc(Cl)cc3Cl)c3ccc(Cl)cc3Cl)c2)cc1 (centres undefined) :: 16.6 µM (active)
